Experimental System: Factor IXa (Homo sapiens (Human))
Sequence (P00740 227-461): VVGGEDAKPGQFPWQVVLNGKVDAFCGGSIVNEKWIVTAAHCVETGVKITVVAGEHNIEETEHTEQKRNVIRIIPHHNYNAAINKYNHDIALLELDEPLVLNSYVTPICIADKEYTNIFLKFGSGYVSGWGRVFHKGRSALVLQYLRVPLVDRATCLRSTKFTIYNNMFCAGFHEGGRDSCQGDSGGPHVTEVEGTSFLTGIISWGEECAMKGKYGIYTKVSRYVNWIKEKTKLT
Sequence (P00740 47-191 partner): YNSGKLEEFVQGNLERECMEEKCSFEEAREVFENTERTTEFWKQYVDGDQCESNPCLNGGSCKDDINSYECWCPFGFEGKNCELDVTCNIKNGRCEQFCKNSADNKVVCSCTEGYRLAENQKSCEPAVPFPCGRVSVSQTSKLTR
Run Description: Determination of inhibitory activity against Factor IXa (cleavage of fluorescent peptide CH3SO2-D-CHG-Gly-Arg-AFC)
Assay type: biochemical
Test Settings: read-out: hFIXa IC50
pIC50: −log10 of the molar value.
Bucketed by reported pIC50, buckets being low (below 7), moderate (7 to below 8), high (8 or more)

Returns: class label. Input: O=C(NCC(c1ccccc1)c1nc2cc(Cl)ccc2c(=O)[nH]1)c1ccc(-n2cnnc2)cc1Cl (stereo not shown) low

----------
Measured IC50 accompanies every entry in the list below.
Experimental System: UniProt:P00740
Run Description: Determination of inhibitory activity against Factor IXa (cleavage of fluorescent peptide CH3SO2-D-CHG-Gly-Arg-AFC)
Format: biochemical
Test Settings: read-out: FIXa IC50
The response must be a number in nM with no trailing unit.

Cc1cc2nc(C(CNC(=O)c3c(Cl)cc(-c4ccnc(C(=O)O)c4)cc3Cl)c3ccccc3)[nH]c2cc1C (stereo not drawn) [Example 16]: 73.6
Cc1ccc2c([C@H](CNC(=O)c3ccc(-n4cnnc4)cc3Cl)c3ccccc3)n[nH]c2c1 [Example 88]: 68.8

Input Cc1cc2nc(C(C)(CNC(=O)c3ccc(-n4cnnc4)cc3Cl)c3ccccc3)[nH]c2cc1C (single isomer, unassigned) [Example 69] , output reported IC50. 55.2

Recall and state the measured IC50 for Cc1ncn(-c2cc(Cl)c(C(=O)NC[C@@H](c3cccc(F)c3)c3nc4c(F)ccc(C)c4c(=O)[nH]3)c(Cl)c2)n1 [Example 92] . 1

Determine its reported IC50: Cc1ncn(-c2cc(Cl)c(C(=O)NCC(c3ccc(=O)[nH]c3)c3nc4ccc(Cl)cc4[nH]3)c(Cl)c2)n1 (racemic) [Example 39, 2,2,2-trifluoroacetate] 2.4

Provide measured IC50 value, entry: Cc1ncn(-c2cc(Cl)c(C(=O)NC[C@@H](c3cccc(F)c3)c3ccc4[nH]c(C)nc4c3)c(Cl)c2)n1 [Example 75] 9.1

Answer with reported IC50 of Cc1ncn(-c2cc(Cl)c(C(=O)NC[C@@H](c3ccc(F)cc3)c3nc4c(F)ccc(C)c4c(=O)[nH]3)c(Cl)c2)n1 [Example 93] 4.6

Provide only the value of recorded IC50 for Cc1cc2cc([C@@H](CNC(=O)c3c(Cl)cc(-n4cnnc4)cc3Cl)c3ccccc3)[nH]c2cc1C [Example 74] 29.1

Output measured IC50 for this item: Cc1cc2nc([C@@H](CNC(=O)c3c(Cl)cc(-n4cnnn4)cc3Cl)c3ccccc3)[nH]c2cc1C [Example 2] 26.4

Report measured IC50; entry is Cc1ccc2c(c1)nnn2[C@H](CNC(=O)c1c(Cl)cc(-n2cnnc2)cc1Cl)c1ccccc1 [Example 90] 38

Identify measured IC50 corresponding to CCOC(=O)c1ccc([C@H](CNC(=O)c2c(Cl)cc(-n3cnc(C)n3)cc2Cl)c2nc3c(C)cc(Cl)cc3[nH]2)cc1 [Example 42] 39.1

Quickly give me recorded IC50 for Cc1ccc2nn([C@@H](CNC(=O)c3c(Cl)cc(-n4cnnc4)cc3Cl)c3ccccc3)nc2c1 [Example 89] 20.9

Provide IC50 value for the following compound: Cc1ncn(-c2cc(Cl)c(C(=O)NC[C@@H](c3cccc(F)c3)c3nc4c(F)ccc(Cl)c4c(=O)[nH]3)c(Cl)c2)n1 [Example 94] 3.5
